Item-by-item account of BUN
# Species on record: Rattus norvegicus
# assay.method.text: Open TG-GATES - Regimen: Daily Repeat
# Format: toxicity, organism-based, Sprague-Dawley
# Parameters: regimen Daily Repeat, gender Male, age 6 weeks
# cond: in vivo, po, 0 mg/kg, […], tissue Plasma, route gavage, dose level Control, time 14 day
measured.metric: BUN (mg/dL)

INSERT INTO assay_data (molecule, measured_value) VALUES
  ('CN1C(=O)CCS(=O)(=O)C1c1ccc(Cl)cc1 (stereo not drawn) [CHLORMEZANONE]', 14.4),
  ('CN/C(=N/CCSCc1nc[nH]c1C)NC#N [CIMETIDINE]', 17),
  ('CCCc1cc(=O)[nH]c(=S)[nH]1 [PROPYLTHIOURACIL]', 18.8),
  ('NC1=NC(=O)C(c2ccccc2)O1 (stereo not drawn) [PEMOLINE]', 15.2),
  ('Cc1nnc2n1-c1ccc(Cl)cc1C(c1ccccc1Cl)=NC2 [TRIAZOLAM]', 15.4),
  ('Nc1c2c(nc3ccccc13)CCCC2 [TACRINE]', 20.6),
  ('CNC(=C[N+](=O)[O-])NCCSCc1ccc(CN(C)C)o1 [RANITIDINE]', 16.2),
  ('O=C(OC[C@H]1O[C@@H](OC(=O)c2cc(O)c(O)c(OC(=O)c3cc(O)c(O)c(O)c3)c2)[C@H](OC(=O)c2cc(O)c(O)c(OC(=O)c3cc(O)c(O)c(O)c3)c2)[C@@H](OC(=O)c2cc(O)c(O)c(OC(=O)c3cc(O)c(O)c(O)c3)c2)[C@@H]1OC(=O)c1cc(O)c(O)c(OC(=O)c2cc(O)c(O)c(O)c2)c1)c1cc(O)c(O)c(OC(=O)c2cc(O)c(O)c(O)c2)c1 [TANNIC ACID]', 18.4),
  ('COC(=O)C1=C(C)NC(C)=C(C(=O)OC)C1c1ccccc1[N+](=O)[O-] [NIFEDIPINE]', 16),
  ('CC(C)NNC(=O)c1ccncc1 [IPRONIAZID]', 20.2),
  ('CCOc1ccc(NC(C)=O)cc1 [PHENACETIN]', 14.6),
  ('CN(C)CCC(c1ccc(Cl)cc1)c1ccccn1 (stereo not drawn) [CHLORPHENIRAMINE]', 15.6),
  ('Brc1ccccc1 [BROMOBENZENE]', 15.8);

----------
# Species: Rattus norvegicus
# assay.method.text: Open TG-GATES - Regimen: Daily Repeat
# Type: toxicity, organism-based, Sprague-Dawley
# Design: regimen Daily Repeat, gender Male, age 6 weeks
# cond: in vivo, po, 0 mg/kg, […], tissue Plasma, route gavage, dose level Control, time 14 day
measured.metric: PL (mg/dL)

INSERT INTO measurements (compound, measured_value) VALUES
  ('CCOc1ccc(NC(C)=O)cc1', 152),
  ('CC(C)NNC(=O)c1ccncc1', 135.2),
  ('CN(C)CCC(c1ccc(Cl)cc1)c1ccccn1 (stereo unspecified)', 153.4),
  ('CN/C(=N/CCSCc1nc[nH]c1C)NC#N', 155.6),
  ('Nc1c2c(nc3ccccc13)CCCC2', 161.6),
  ('CNC(=C[N+](=O)[O-])NCCSCc1ccc(CN(C)C)o1', 140.8);

----------
# Species on record: Rattus norvegicus
# assay.method.text: Open TG-GATES - Regimen: Single
# Type: toxicity, organism-based, Sprague-Dawley
# Design: regimen Single, gender Male, age 6 weeks
# cond: in vivo, po, 300 mg/kg, 24 h, tissue Blood, route gavage, dose level Middle
measured.metric: MCV (fL)

INSERT INTO measurements (smiles_record, measured_metric, unit_descriptor, measured_value) VALUES
  ('CNC(=C[N+](=O)[O-])NCCSCc1ccc(CN(C)C)o1', 'MCV', 'fL', 64.2),
  ('O=C(OC[C@H]1O[C@@H](OC(=O)c2cc(O)c(O)c(OC(=O)c3cc(O)c(O)c(O)c3)c2)[C@H](OC(=O)c2cc(O)c(O)c(OC(=O)c3cc(O)c(O)c(O)c3)c2)[C@@H](OC(=O)c2cc(O)c(O)c(OC(=O)c3cc(O)c(O)c(O)c3)c2)[C@@H]1OC(=O)c1cc(O)c(O)c(OC(=O)c2cc(O)c(O)c(O)c2)c1)c1cc(O)c(O)c(OC(=O)c2cc(O)c(O)c(O)c2)c1', 'MCV', 'fL', 65.8),
  ('CN/C(=N/CCSCc1nc[nH]c1C)NC#N', 'MCV', 'fL', 64.5),
  ('COC(=O)C1=C(C)NC(C)=C(C(=O)OC)C1c1ccccc1[N+](=O)[O-]', 'MCV', 'fL', 62.2),
  ('Cc1nnc2n1-c1ccc(Cl)cc1C(c1ccccc1Cl)=NC2', 'MCV', 'fL', 63.6);
